# MEASUREMENT NOTES: AUCinfinity in mouse at 25 mg/kg, po
# Format: ADME, organism-based
# Set-up: dose 25 mg/kg, route oral, time infinity
# MEASUREMENT CONTEXT: in vivo
Listed compounds paired with reported AUC(0-inf)
Express the result in ng·h/mL but write the number alone.

O=S(=O)(NCCCN1c2ccccc2CCc2ccc(Cl)cc21)c1ccc(OC(F)(F)F)cc1 = 1430

Exam item: Would you mind telling me what AUC(0-inf) value was observed for "O=S(=O)(NC[C@H](O)CN1c2ccccc2CCc2ccccc21)c1ccc(OC(F)(F)F)cc1" ?
Marked response: 3460

###

Listed compounds paired with reported Cmax
# MEASUREMENT NOTES: Cmax in mouse at 10 mg/kg, ip
# Format: ADME, organism-based
# Parameters: dose 10 mg/kg, route intraperitoneal
# MEASUREMENT CONTEXT: in vivo
Express the result in ng/mL but write the number alone.

Exam item: Would you mind telling me what Cmax value was observed for "COC(=O)NCCCN1c2ccccc2Sc2ccc(Cl)cc21" ?
Marked response: 859

Exam item: Try the compound "Cc1ccc(S(=O)(=O)NCCCN2c3ccccc3Sc3ccc(Cl)cc32)cc1"
Marked response: 2250

###

# MEASUREMENT NOTES: Oral bioavailability in mouse at 10 mg/kg
# Type: ADME, organism-based
# MEASUREMENT CONTEXT: in vivo
MEASURED ENDPOINT: bioavailability (%)
Express the result in % but write the number alone.

Cc1ccc(S(=O)(=O)NCCCN2c3ccccc3Sc3ccc(Cl)cc32)cc1 = 16.9

Exam item: Would you mind telling me what bioavailability value was observed for "COC(=O)NCCCN1c2ccccc2Sc2ccc(Cl)cc21" ?
Marked response: 15.8

###

# MEASUREMENT NOTES: Tmax in mouse at 100 mg/kg, ip administered through DMA/solutol/water
# Type: ADME, organism-based
# MEASUREMENT CONTEXT: in vivo
Listed compounds paired with reported Tmax
Express the result in h but write the number alone.

O=S(=O)(NC[C@H](O)CN1c2ccccc2CCc2ccccc21)c1ccc(OC(F)(F)F)cc1 = 1

Note: attention shifts to another entry.
Exam item: Would you mind telling me what Tmax value was observed for "O=S(=O)(NCCCN1c2ccccc2CCc2ccc(Cl)cc21)c1ccc(OC(F)(F)F)cc1" ?
Marked response: 2

###

# MEASUREMENT NOTES: Tmax in mouse at 10 mg/kg, ip
# Format: ADME, organism-based
# MEASUREMENT CONTEXT: in vivo
MEASURED ENDPOINT: Tmax (min)
Express the result in min but write the number alone.

COC(=O)NCCCN1c2ccccc2Sc2ccc(Cl)cc21 = 15

Note: attention shifts to another entry.
Exam item: Would you mind telling me what Tmax value was observed for "Cc1ccc(S(=O)(=O)NCCCN2c3ccccc3Sc3ccc(Cl)cc32)cc1" ?
Marked response: 60

###

Listed molecules paired with reported inhibition
# ASSAY SYSTEM: D(2) dopamine receptor (Homo sapiens) (UniProt P14416)
# Sequence (P14416 whole entry): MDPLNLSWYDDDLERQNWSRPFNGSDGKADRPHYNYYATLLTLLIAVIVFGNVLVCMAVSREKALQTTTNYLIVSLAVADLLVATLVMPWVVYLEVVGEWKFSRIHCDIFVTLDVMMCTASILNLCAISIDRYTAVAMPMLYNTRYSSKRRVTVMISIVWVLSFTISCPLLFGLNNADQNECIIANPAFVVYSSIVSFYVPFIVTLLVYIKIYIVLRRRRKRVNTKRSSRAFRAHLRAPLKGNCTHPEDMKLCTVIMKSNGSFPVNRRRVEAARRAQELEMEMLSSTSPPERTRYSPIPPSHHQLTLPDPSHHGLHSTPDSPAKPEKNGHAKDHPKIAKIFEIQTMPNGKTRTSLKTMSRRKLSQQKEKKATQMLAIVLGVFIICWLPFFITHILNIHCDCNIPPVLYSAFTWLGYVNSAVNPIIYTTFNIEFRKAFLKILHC
# MEASUREMENT NOTES: Binding affinity to dopamine D2 receptor (unknown origin) at 0.1 mM by radioligand displacement assay relative to control

Exam item: Would you mind telling me what inhibition value was observed for "COC(=O)NCCCN1c2ccccc2Sc2ccc(Cl)cc21" ?
Marked response: < 5%

Exam item: Try the molecule CN1CCN(CCCN2c3ccccc3Sc3ccc(C(F)(F)F)cc32)CC1 [TRIFLUOPERAZINE]
Marked response: > 95%

Exam item: Try the molecule "Cc1ccc(S(=O)(=O)NCCCN2c3ccccc3CCc3ccc(Cl)cc32)cc1"
Marked response: < 5%

Exam item: Try the molecule "COC(=O)NCCCN1c2ccccc2CCc2ccc(Cl)cc21"
Marked response: < 5%
